# test-target: T1, recombinant human GPC2-His protein (human, UniProt Q8N158 24-554, limits assumed)
# T1 construct: Bought protein; The SPR paragraph gives no catalogue number for GPC2-His; also called recombinant Human Glypican 2 Protein; recombinant human GPC2 protein; not shown: His tag
# T1 sequence (looked up): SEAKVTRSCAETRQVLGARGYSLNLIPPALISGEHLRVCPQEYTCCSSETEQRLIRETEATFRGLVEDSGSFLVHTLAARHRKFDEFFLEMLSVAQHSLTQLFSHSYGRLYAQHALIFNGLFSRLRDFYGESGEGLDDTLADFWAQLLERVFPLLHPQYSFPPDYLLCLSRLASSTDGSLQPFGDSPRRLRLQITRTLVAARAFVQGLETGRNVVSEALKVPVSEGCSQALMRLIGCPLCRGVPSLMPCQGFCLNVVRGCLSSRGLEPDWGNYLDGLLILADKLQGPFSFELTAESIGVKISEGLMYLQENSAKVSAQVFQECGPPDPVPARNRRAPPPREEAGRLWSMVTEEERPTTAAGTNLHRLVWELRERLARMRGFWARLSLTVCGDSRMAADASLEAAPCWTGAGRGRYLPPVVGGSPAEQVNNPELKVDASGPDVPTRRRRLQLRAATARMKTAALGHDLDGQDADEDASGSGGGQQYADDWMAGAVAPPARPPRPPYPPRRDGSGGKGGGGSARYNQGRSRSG
# assay-overview: SPR, Biacore T200, GPC2-His amine-coupled to CM5 chip, VHH-hIgG1Fc as analyte, 1:1 model
Would you please tag the item yes (1) when its kon is 500000 M⁻¹ s⁻¹ or above, and no (0) when it is below?

binder: AS70950VH6-hIgG1Fc (Fc fusion, also called anti-GPC2 VHH-hIgG1Fc; not shown: human IgG1 Fc fragment (hIgG1Fc)) EVQLVESGGGLVQPGGSLRLSCAISEFTYKNTCVGWFRQAPGKGREGVAAIDSDGNTNYVDSVKGRFTISQDNSKNTVYLQMNSLRAEDTAMYYCAAGAYCGRLLLWIGNYAYWGQGTLVTVSS
category-label: no (0)
--
binder: AS71529VH6-hIgG1Fc (Fc fusion, also called anti-GPC2 VHH-hIgG1Fc; not shown: human IgG1 Fc fragment (hIgG1Fc)) EVQLVESGGGLVQPGGSLRLSCAVSEYRYSSRYCMGWFRQAPGKGREGVAAIDSNGSADYVDSVKGRFTISKDNSKNTLYLQMNSLRAEDTAMYYCAADHLAYDCYSGATSVFRYWGQGTLVTVSS
category-label: yes (1)
--
binder: AS79236VH6-hIgG1Fc (Fc fusion, also called anti-GPC2 VHH-hIgG1Fc; not shown: human IgG1 Fc fragment (hIgG1Fc)) EVQLVESGGGLVQPGGSLRLSCAVSGYTYSSYCMAWFRQAPGKGLEGVASIDAGGRTTYVDSVKGRFTISKDNAKNSLYLQMNSLRAEDTAMYYCAVDVRTRCGGTWDGEAVYFPYWGQGTLVTVSS
category-label: yes (1)
--
binder: AS78117VH4-hIgG1Fc (Fc fusion, also called anti-GPC2 VHH-hIgG1Fc; not shown: human IgG1 Fc fragment (hIgG1Fc)) EVQLVESGGGLVQPGGSLRLSCIVSRYTYATYSMAWFRQAPGKGLEGVSGLDSVGATGYAESVKGRFTISRDNSKNTLYLQMNSLRAEDTAVYYCVVDPASAKVTYGSWSTPSYAYWGQGTLVTVSS
category-label: no (0)
--
binder: AS71529VH6-AS70950VH6-hIgG1Fc (Fc fusion, Two different anti-GPC2 VHH domains in tandem, fused to a human IgG1Fc fragment; also called tandem anti-GPC2 VHH-hIgG1Fc; not shown: human IgG1 Fc fragment (hIgG1Fc)) EVQLVESGGGLVQPGGSLRLSCAVSEYRYSSRYCMGWFRQAPGKGREGVAAIDSNGSADYVDSVKGRFTISKDNSKNTLYLQMNSLRAEDTAMYYCAADHLAYDCYSGATSVFRYWGQGTLVTVSSGGGGSGGGGSGGGGSEVQLVESGGGLVQPGGSLRLSCAISEFTYKNTCVGWFRQAPGKGREGVAAIDSDGNTNYVDSVKGRFTISQDNSKNTVYLQMNSLRAEDTAMYYCAAGAYCGRLLLWIGNYAYWGQGTLVTVSS
category-label: no (0)
--
binder: AS72669VH6-hIgG1Fc (Fc fusion, also called anti-GPC2 VHH-hIgG1Fc; not shown: human IgG1 Fc fragment (hIgG1Fc)) QVQLVESGGGVVQPGGSLRLSCAASRFTYSSYCMGWIRQAPGKGREGVAIFYTGGGRTYYADSVKGRFTISQDNSKNTLYLQMNSLRAEDTAVYYCVAGFYCSGGYWEGDFGYWGQGTLVTVSS
category-label: yes (1)
